Origin of values: PubChem BioAssay

# inhibition per record follows
Test: inhibitors of the yeast RAM network, pilot screen, dse1pr::URA3 reporter, 5-FOA selection (AID 869);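 note: 0% = DMSO wells with no growth and 100% = 10 µM 1-NA-PP1 with full growth; RAM network block rescues cells from 5-FOA so hits raise OD615 growth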
Conditions: S. cerevisiae dse1pr::URA3 5-FOA growth, OD615, 2 d; at 10 µM; hits give high values; strain carries analog-sensitive mutant Cbk1 kinase
REPORTED PROPERTY: inhibition (%)

> print(dat)
                                    compound  reported.property  assay.result
 1              Cc1nc2ccccn2c1C(=O)NC1CCCCC1         inhibition          1.17
 2  CCOC(=O)Cn1c(=O)oc2cc(S(=O)(=O)N(C)Cc3ccco3)ccc21         inhibition          3.37
 3  COC(=O)c1ccc(C2c3c(oc4ccccc4c3=O)C(=O)N2CCCN2CCOCC2)cc1 (centres undefined)         inhibition          0.54
 4  Cc1cc(C(=O)CN2CC(C)OC(C)C2)c(C)n1-c1ccccc1 (centres undefined)         inhibition          1.83
 5  N#Cc1ccc(OCCN2C(=O)NC3(CCSC3)C2=O)cc1 (centres undefined)         inhibition         0.975
 6               O=c1oc2ccccc2n1CCCOc1ccccc1         inhibition          2.02
 7   Cc1sc2nc(SCC(=O)N3CCOCC3)[nH]c(=O)c2c1C         inhibition           1.8
 8                  CCNC(=O)COc1ccc2ccccc2c1         inhibition          1.06
 9  CCOC(=O)N1CCC(Nc2c(N3CCN(c4cc(Cl)ccc4C)CC3)c(=O)c2=O)CC1         inhibition          2.42
10  Cc1c(C(=O)NCc2cccnc2)oc2ccc(S(=O)(=O)N3CC(C)CC(C)C3)cc12 (centres undefined)         inhibition          1.87
11           CCCCNc1ncnc2c1cnn2-c1ccc(Cl)cc1         inhibition         0.835
12  COCCn1c(SCC(=O)Nc2ccccc2)nc2c1c(=O)[nH]c(=O)n2C         inhibition          1.67
13  COc1ccc(OC)c(NC(=O)C2CCCNC2=O)c1 (centres undefined)         inhibition          1.33
14             CC(C)Cc1ccc(C#N)c(SCC(N)=O)n1         inhibition          2.18
15          CC(C)(C)SCCNS(=O)(=O)c1ccc(F)cc1         inhibition         0.725
16  COc1cccc(NC(=O)CSc2nnc(Cn3c(=O)sc4ccccc43)n2C)c1         inhibition          2.37
17      O=C(c1ccccc1)c1cccc(NC(=O)c2ccco2)c1         inhibition        -0.895
18  COc1ccc(C2C3=C(Nc4ncnn42)c2ccccc2CCC3)cc1 (centres undefined)         inhibition           1.9
19  O=C(O)C1CCCN1S(=O)(=O)c1cc(Cl)ccc1Cl (centres undefined)         inhibition         0.535
20  Cc1ccc2oc(=O)c3cc(C(=O)N4CCN(C(=O)c5ccco5)CC4)sc3c2c1         inhibition           2.8
21  CCOc1ccc(NC(=O)c2ccc(S(=O)(=O)N(C)C)cc2)cc1         inhibition          1.32
22               COCC(=O)NCCc1nc2ccccc2[nH]1         inhibition        -0.325
23  O=C(CCCC1=NS(=O)(=O)c2ccccc2N1)N1CCN(c2ccc(Cl)cc2)CC1         inhibition          0.37
24        CC1(C)Oc2ccc3ccc(=O)oc3c2-c2cnoc21         inhibition          1.08
